Quick reference: Ratio IC50 of the listed items.
assayText: Selectivity index, ratio of IC50 for mouse BALB/3T3 cells to IC50 for human LoVo/DX cells
Format: functional
Form rule: numeric answer, no unit written next to it.

>  <smilesData>
CC[C@@H](C(=O)[C@@H](C)[C@@H](O)[C@H](C)[C@@H]1O[C@@H]([C@@H](CC)C(=O)N[C@@H](CO)C(=O)OC)CC[C@@H]1C)[C@H]1O[C@]2(C=C[C@@H](O)[C@]3(CC[C@@](C)([C@H]4CC[C@](O)(CC)[C@H](C)O4)O3)O2)[C@H](C)C[C@@H]1C

>  <reportedMeasurement>
5.16

$$$$

Turning to the following compound.
Exercise: Entry COc1cccc2c1C(=O)c1c(O)c3c(c(O)c1C2=O)C[C@@](O)(C(=O)CO)C[C@@H]3O[C@H]1C[C@H](N)[C@H](O)[C@H](C)O1 : reported Ratio IC50 = ?
Solution: 0.04

====

Test system: LoVo
assayText: Resistant index, ratio of IC50 for human LoVo/DX cells to IC50 for LoVo cells
Type: functional
Quick reference: Ratio IC50 of the listed items.
Form rule: numeric answer, no unit written next to it.

>  <smilesData>
CC[C@@H](C(=O)[C@@H](C)[C@@H](O)[C@H](C)[C@@H]1O[C@@H]([C@@H](CC)C(=O)NCC(=O)OC)CC[C@@H]1C)[C@H]1O[C@]2(C=C[C@@H](O)[C@]3(CC[C@@](C)([C@H]4CC[C@](O)(CC)[C@H](C)O4)O3)O2)[C@H](C)C[C@@H]1C

>  <Ratio IC50>
0.74

$$$$

Turning to the following molecule.
Exercise: Entry CC[C@@H](C(=O)[C@@H](C)[C@@H](O)[C@H](C)[C@@H]1O[C@@H]([C@@H](CC)C(=O)N[C@@H](Cc2ccccc2)C(=O)OC)CC[C@@H]1C)[C@H]1O[C@]2(C=C[C@@H](O)[C@]3(CC[C@@](C)([C@H]4CC[C@](O)(CC)[C@H](C)O4)O3)O2)[C@H](C)C[C@@H]1C : reported Ratio IC50 = ?
Solution: 1

====

assayText: Selectivity index, ratio of IC50 for mouse BALB/3T3 cells to IC50 for human LoVo/DX cells
Type: functional
quantityName: Ratio IC50

>  <compound>
CC[C@@H](C(=O)[C@@H](C)[C@@H](O)[C@H](C)[C@@H]1O[C@@H]([C@@H](CC)C(=O)N[C@@H](Cc2cnc[nH]2)C(=O)OC)CC[C@@H]1C)[C@H]1O[C@]2(C=C[C@@H](O)[C@]3(CC[C@@](C)([C@H]4CC[C@](O)(CC)[C@H](C)O4)O3)O2)[C@H](C)C[C@@H]1C

>  <quantityName>
Ratio IC50

>  <reportedMeasurement>
43.54

$$$$

Turning to the following compound.
Exercise: Entry CC[C@@H](C(=O)[C@@H](C)[C@@H](O)[C@H](C)[C@@H]1O[C@@H]([C@@H](CC)C(=O)O)CC[C@@H]1C)[C@H]1O[C@]2(C=C[C@@H](O)[C@]3(CC[C@@](C)([C@H]4CC[C@](O)(CC)[C@H](C)O4)O3)O2)[C@H](C)C[C@@H]1C [SALINOMYCIN] : reported Ratio IC50 = ?
Solution: 47.05

====

assayText: Selectivity index, ratio of IC50 for mouse BALB/3T3 cells to IC50 for human LoVo/DX cells
Format: functional
Quick reference: Ratio IC50 of the listed items.
Form rule: numeric answer, no unit written next to it.

Below, 2 compounds whose answers are already recorded.
>  <smilesData>
CC[C@@H](C(=O)[C@@H](C)[C@@H](O)[C@H](C)[C@@H]1O[C@@H]([C@@H](CC)C(=O)N[C@@H](Cc2ccc(O)cc2)C(=O)OC)CC[C@@H]1C)[C@H]1O[C@]2(C=C[C@@H](O)[C@]3(CC[C@@](C)([C@H]4CC[C@](O)(CC)[C@H](C)O4)O3)O2)[C@H](C)C[C@@H]1C

>  <Ratio IC50>
6.09

$$$$
>  <smilesData>
CC[C@@H](C(=O)[C@@H](C)[C@@H](O)[C@H](C)[C@@H]1O[C@@H]([C@@H](CC)C(=O)N[C@@H](Cc2ccccc2)C(=O)OC)CC[C@@H]1C)[C@H]1O[C@]2(C=C[C@@H](O)[C@]3(CC[C@@](C)([C@H]4CC[C@](O)(CC)[C@H](C)O4)O3)O2)[C@H](C)C[C@@H]1C

>  <Ratio IC50>
4.87

$$$$

Exercise: Entry CC[C@@H](C(=O)[C@@H](C)[C@@H](O)[C@H](C)[C@@H]1O[C@@H]([C@@H](CC)C(=O)NCC(=O)OC)CC[C@@H]1C)[C@H]1O[C@]2(C=C[C@@H](O)[C@]3(CC[C@@](C)([C@H]4CC[C@](O)(CC)[C@H](C)O4)O3)O2)[C@H](C)C[C@@H]1C : reported Ratio IC50 = ?
Solution: 10.81
